- experimental-details: MTT cytotoxicity against regular cell line BALB/3T3
- Type: cell-based
- measurement-setup: balb/3t3 cells, BALB/3T3 mouse fibroblasts, read-out: IC50, cytotoxicity against regular cell line
- Method: The proliferation rate of the cells was measured using an MTT assay. (see Additional file 1: Methods for details). IC50 parameter was determined as previously described. […] The proliferation rate of the cells was measured using an MTT assay. […] Absorbance was measured using a Bio Tek Hybrid H4 reader (BioTek Instruments, USA) at 570 nm wavelength. […]
endpoint-name: CC50 at 72 h (µM)
One number for each entry, in µM.

The reported CC50 at 72 h of the compound COC(=O)C1CN1S(=O)(=O)c1ccc2c(N(C)C)cccc2c1 (centres unmarked) [Inhibitor C-3399] was 38.2
